assay_remarks: activity coefficient (dimensionless); of the first substance listed, at infinite dilution; xn = mol fraction of the nth substance listed
assay_setup: 303.2 K; 100 kPa; Liquid; Chromatography; x1 = 0
Decide using activity coefficient alone. Strictly below 2: true (1). Equal to or above 2: false (0).

Q: Dear reviewer, please state whether Cc1ccccc1 [toluene] + CCCCCC[n+]1ccccc1.O=S(=O)([N-]S(=O)(=O)C(F)(F)F)C(F)(F)F has activity coefficient strictly beneath 2.
Result: true (1)

Q: # check: activity coefficient < 2 for c1ccccc1 [benzene] + CCCCCC[n+]1ccccc1.O=S(=O)([N-]S(=O)(=O)C(F)(F)F)C(F)(F)F
Result: true (1)

Q: Consider C1CCCCC1 [cyclohexane] + CCCCCC[n+]1ccccc1.O=S(=O)([N-]S(=O)(=O)C(F)(F)F)C(F)(F)F . Does its activity coefficient lie strictly below 2?
Result: false (0)

Q: Item CCO [ethanol] + CCCCCC[n+]1ccccc1.O=S(=O)([N-]S(=O)(=O)C(F)(F)F)C(F)(F)F : activity coefficient beneath 2, strictly?
Result: true (1)

Q: Dear colleague, could you confirm whether activity coefficient of CCCCO [butan-1-ol] + CCCCCC[n+]1ccccc1.O=S(=O)([N-]S(=O)(=O)C(F)(F)F)C(F)(F)F falls below 2? Thanks.
Result: false (0)

----------
assay_remarks: activity coefficient (dimensionless); of the first substance listed, at infinite dilution; xn = mol fraction of the nth substance listed
assay_setup: 343.2 K; 100 kPa; Liquid; Chromatography; x1 = 0
Flag rule - activity coefficient less than 1 flags MET; the remaining entries get NOT MET.

Q: Does the reported activity coefficient of the following compound sit strictly below 1? CCCCO [butan-1-ol] + CCCCCC[n+]1ccccc1.O=S(=O)([N-]S(=O)(=O)C(F)(F)F)C(F)(F)F
Result: NOT MET

Q: Threshold test, activity coefficient < 1: Cc1ccccc1 [toluene] + CCCCCC[n+]1ccccc1.O=S(=O)([N-]S(=O)(=O)C(F)(F)F)C(F)(F)F
Result: MET

Q: Strictly below 1: is that where activity coefficient of c1ccccc1 [benzene] + CCCCCC[n+]1ccccc1.O=S(=O)([N-]S(=O)(=O)C(F)(F)F)C(F)(F)F sits?
Result: MET

Q: Strictly below 1: is that where activity coefficient of C1CCCCC1 [cyclohexane] + CCCCCC[n+]1ccccc1.O=S(=O)([N-]S(=O)(=O)C(F)(F)F)C(F)(F)F sits?
Result: NOT MET

Q: Decide: activity coefficient of CCCO [propan-1-ol] + CCCCCC[n+]1ccccc1.O=S(=O)([N-]S(=O)(=O)C(F)(F)F)C(F)(F)F strictly below 1?
Result: NOT MET

----------
Assign activity coefficient to each entry below.
assay_remarks: activity coefficient (dimensionless); of the first substance listed, at infinite dilution; xn = mol fraction of the nth substance listed
assay_setup: 313.2 K; 100 kPa; Liquid; Chromatography; x1 = 0
Please respond with just the number, no unit label.

Q: Would you kindly share the measured activity coefficient for CCCO [propan-1-ol] + CCCCCC[n+]1ccccc1.O=S(=O)([N-]S(=O)(=O)C(F)(F)F)C(F)(F)F ?
Result: 1.49

Q: Request the reported activity coefficient associated with C1CCCCC1 [cyclohexane] + CCCCCC[n+]1ccccc1.O=S(=O)([N-]S(=O)(=O)C(F)(F)F)C(F)(F)F
Result: 4.86

Q: Requested field: activity coefficient. Item: Cc1ccccc1 [toluene] + CCCCCC[n+]1ccccc1.O=S(=O)([N-]S(=O)(=O)C(F)(F)F)C(F)(F)F
Result: 0.868

Q: Sample CCCCO [butan-1-ol] + CCCCCC[n+]1ccccc1.O=S(=O)([N-]S(=O)(=O)C(F)(F)F)C(F)(F)F — what was its activity coefficient?
Result: 1.72

Q: Using the record for c1ccccc1 [benzene] + CCCCCC[n+]1ccccc1.O=S(=O)([N-]S(=O)(=O)C(F)(F)F)C(F)(F)F , report its activity coefficient.
Result: 0.655

Q: Quick one: activity coefficient of CCO [ethanol] + CCCCCC[n+]1ccccc1.O=S(=O)([N-]S(=O)(=O)C(F)(F)F)C(F)(F)F ?
Result: 1.35
